- Test system: NCI-H647
- protocol_summary: relative viability (nuclei count vs DMSO), 5 days (fraction); higher = more cells survive
- experimental_setup: first compound 0.4 µM
value_type: relative viability
Give bare numbers.

// worked examples, relative viability included
Look up and report measured relative viability for this entry: C[C@@H]1CN(CC(=O)Nc2ccc3c(c2)Cc2cccc(-c4cc(=O)cc(N5CCOCC5)o4)c2S3)C[C@H](C)O1 + Cc1nc(NC(=O)N2CCC[C@H]2C(N)=O)sc1-c1ccnc(C(C)(C)C(F)(F)F)c1 [Alpelisib] (partner 2 µM)
1.08

Read off the recorded relative viability for Clc1ccc(Nc2nnc(Cc3ccncc3)c3ccccc23)cc1 [Vatalanib] + NC(=O)Nc1cc(-c2cccc(F)c2)sc1C(=O)N[C@H]1CCCNC1 [AZD7762] (partner 0.2 µM)
0.395

Give relative viability for C[C@@H]1CN(CC(=O)Nc2ccc3c(c2)Cc2cccc(-c4cc(=O)cc(N5CCOCC5)o4)c2S3)C[C@H](C)O1 + CS(=O)(=O)N1CCN(Cc2cc3nc(-c4cccc5[nH]ncc45)nc(N4CCOCC4)c3s2)CC1 [Pictilisib] (partner 1 µM)
0.204

Please turn your attention to the following entry.
Assign relative viability to the following record: COc1cc(N2CCC(C(N)=O)CC2)ccc1Nc1nc(N)c(Cl)c(Nc2ccccc2S(=O)(=O)C(C)C)n1 [HG-5-88-01] + N=C(N)NC(=N)NCCc1ccccc1 [Phenformin] (partner 250 µM)
0.624

====

- Tested on: LCLC-97TM1
- protocol_summary: relative viability (nuclei count vs DMSO), 5 days (fraction); higher = more cells survive
- experimental_setup: first compound 8 µM
value_type: relative viability

Recorded results for 3 molecules are shown here.
Entry CCCCCCCCCCCC1=C(O)C(=O)C=C(O)C1=O [Embelin] + CS(=O)(=O)CCNCc1ccc(-c2ccc3ncnc(Nc4ccc(OCc5cccc(F)c5)c(Cl)c4)c3c2)o1 [Lapatinib] (partner 2 µM) needs its relative viability filled in; supply it.
0.86

For the molecule CCCCCCCCCCCC1=C(O)C(=O)C=C(O)C1=O [Embelin] + CC(=O)c1c(C)c2cnc(Nc3ccc(N4CCNCC4)cn3)nc2n(C2CCCC2)c1=O [Palbociclib] (partner 0.5 µM) , report relative viability.
0.242

Give the reported relative viability for this molecule. CCCCCCCCCCCC1=C(O)C(=O)C=C(O)C1=O [Embelin] + CC(=O)Nc1cccc(-n2c(=O)n(C3CC3)c(=O)c3c(Nc4ccc(I)cc4F)n(C)c(=O)c(C)c32)c1 [Trametinib] (partner 0.02 µM)
0.184

Value sought for every listed molecule: relative viability.
1. CCCCCCCCCCCC1=C(O)C(=O)C=C(O)C1=O [Embelin] + Nc1nc2[nH]cc(CCc3ccc(C(=O)N[C@@H](CCC(=O)O)C(=O)O)cc3)c2c(=O)[nH]1 [Pemetrexed] (partner 0.2 µM)
2. CCCCCCCCCCCC1=C(O)C(=O)C=C(O)C1=O [Embelin] + CS(=O)(=O)N1CCN(Cc2cc3nc(-c4cccc5[nH]ncc45)nc(N4CCOCC4)c3s2)CC1 [Pictilisib] (partner 1 µM)

0.182
0.122

====

Could you please report measured relative viability for the items listed next?
- Test system: A549
- protocol_summary: relative viability (nuclei count vs DMSO), 5 days (fraction); higher = more cells survive
- experimental_setup: first compound 0.1265 µM
Numbers only.

The following molecules have reported results that may help.
Give relative viability for the following molecule: Clc1ccc(Nc2nnc(Cc3ccncc3)c3ccccc23)cc1 [Vatalanib] + Cc1nc(NC(=O)N2CCC[C@H]2C(N)=O)sc1-c1ccnc(C(C)(C)C(F)(F)F)c1 [Alpelisib] (partner 2 µM)
0.758

Give the value of relative viability reported for the following: Clc1ccc(Nc2nnc(Cc3ccncc3)c3ccccc23)cc1 [Vatalanib] + CS(=O)(=O)N1CCN(Cc2cc3nc(-c4cccc5[nH]ncc45)nc(N4CCOCC4)c3s2)CC1 [Pictilisib] (partner 1 µM)
0.506

// Input: C[C@@H]1CN(CC(=O)Nc2ccc3c(c2)Cc2cccc(-c4cc(=O)cc(N5CCOCC5)o4)c2S3)C[C@H](C)O1 + CC1(C)CCC(c2ccc(Cl)cc2)=C(CN2CCN(c3ccc(C(=O)NS(=O)(=O)c4ccc(N[C@H](CCN5CCOCC5)CSc5ccccc5)c(S(=O)(=O)C(F)(F)F)c4)cc3)CC2)C1 [Navitoclax] (partner 0.5 µM) . Output its relative viability only.
1.2

Fill in relative viability for record C[C@@H]1CN(CC(=O)Nc2ccc3c(c2)Cc2cccc(-c4cc(=O)cc(N5CCOCC5)o4)c2S3)C[C@H](C)O1 + COc1cc2c(Oc3ccc(NC(=O)C4(C(=O)Nc5ccc(F)cc5)CC4)cc3F)ccnc2cc1OCCCN1CCOCC1 [Foretinib] (partner 0.25 µM)
1.01

Specify measured relative viability for Clc1ccc(Nc2nnc(Cc3ccncc3)c3ccccc23)cc1 [Vatalanib] + CC1(C)CCC(c2ccc(Cl)cc2)=C(CN2CCN(c3ccc(C(=O)NS(=O)(=O)c4ccc(N[C@H](CCN5CCOCC5)CSc5ccccc5)c(S(=O)(=O)C(F)(F)F)c4)cc3)CC2)C1 [Navitoclax] (partner 0.5 µM) .
1.33

I have 2 molecules here; please give me relative viability for each one.
1. COc1cc(N2CCC(C(N)=O)CC2)ccc1Nc1nc(N)c(Cl)c(Nc2ccccc2S(=O)(=O)C(C)C)n1 [HG-5-88-01] + C[C@@H](Oc1cc(-c2cnn(C3CCNCC3)c2)cnc1N)c1c(Cl)ccc(F)c1Cl [Crizotinib] (partner 1 µM)
2. COc1cc(N2CCC(C(N)=O)CC2)ccc1Nc1nc(N)c(Cl)c(Nc2ccccc2S(=O)(=O)C(C)C)n1 [HG-5-88-01] + O=C(c1cc(Cc2n[nH]c(=O)c3ccccc23)ccc1F)N1CCN(C(=O)C2CC2)CC1 [Olaparib] (partner 8 µM)

1. 0.763
2. 0.419
